# testedOn: Retinaldehyde dehydrogenase 3 (Homo sapiens) (UniProt P47895)
# procedureText: qHTS for Inhibitors of the Aldehyde Dehydrogenase Family (ALDH1A3) Confirmatory screens (AID 2061311); note: nearly all actives have a fitted effect of over 60% in size
# conditionNotes: ALDH inhibition qHTS; series mostly up to 46 µM
Records with an inconclusive call do not appear. Calls of active or inactive are those of the source. Calls come from the whole dose curve; as a rule, active = well fitted inhibition curve with a large enough effect; inconclusive = small, poorly fitted or top-dose-only effect; inactive = no such curve, though single readings can be large or run the other way.
Classes used: True = active, False = inactive

{"columns": ["givenSmiles", "testedOn", "className"],
 "data": [
  ["Cc1ccc([S+](=O)([O-])c2nnn3c2nc(N2CCC(F)CC2)c2ccccc23)cc1", "Retinaldehyde dehydrogenase 3 (Homo sapiens) (UniProt P47895)", "False"],
  ["COc1ccc(C)cc1NC(=O)N1CCC(OC2CCN(Cc3ccccc3)CC2)CC1", "Retinaldehyde dehydrogenase 3 (Homo sapiens) (UniProt P47895)", "False"],
  ["N#Cc1cnc(NS(=O)(=O)c2ccc(NC(=O)Cc3ccc(Cl)c(Cl)c3)cc2)s1", "Retinaldehyde dehydrogenase 3 (Homo sapiens) (UniProt P47895)", "False"],
  ["CNC(=O)c1ccccc1Nc1cc(Nc2ccc(N3CCOCC3)cc2OC)ncc1C(F)(F)F", "Retinaldehyde dehydrogenase 3 (Homo sapiens) (UniProt P47895)", "True"],
  ["CC(=O)Nc1sc2c(c1-c1nc3ccccc3o1)CCN(C(C)C)C2", "Retinaldehyde dehydrogenase 3 (Homo sapiens) (UniProt P47895)", "True"]
]}

###

# procedureText: qHTS for Inhibitors of the Aldehyde Dehydrogenase Family (ALDH1A2, ALDH1A3, ALDH2, ALDH3A1) (AID 2061307); note: nearly all actives have a fitted effect of over 50% in size
# conditionNotes: ALDH inhibition qHTS; series mostly up to 50.3 µM
Inconclusive results are not listed. Calls of active or inactive are those of the source. Calls follow the shape of the dose curve; as a rule, active = well fitted inhibition curve with a large enough effect; inconclusive = small, poorly fitted or top-dose-only effect; inactive = no such curve, though single readings can be large or run the other way.
Classes used: active, inactive

{"columns": ["molecule", "className"],
 "data": [
  ["C[S+](=O)([O-])c1ccc(-c2nnc3ccc(C(=O)NCCc4ccccc4F)cn23)cc1", "inactive"],
  ["CNc1sc(-c2cccc3ccccc23)nc1C#N", "inactive"],
  ["CCN1C(=O)c2ccccc2S(=O)c2ccc(C(=O)NCc3cccc(-c4ccccc4)c3)cc21 (stereo unspecified)", "active"],
  ["c1coc(-c2ccc3nncn3c2)c1", "active"],
  ["Cc1[nH]cnc1C[C@H]1CCc2c(C)c3ccccc3n2C1=O", "active"],
  ["O=C1Nc2c(Cl)cccc2/C1=C\\c1cc(Cl)c(O)c(Cl)c1", "active"],
  ["CN(C)Cn1c(O)c(N=NC(=O)c2cccnc2)c2ccccc21", "inactive"],
  ["O=[N+]([O-])c1cccnc1S(=O)(=O)c1ccccc1", "inactive"],
  ["Fc1cc(Cn2cnc3ccccc32)ccc1Cl", "active"],
  ["CNc1nc2c(s1)C(c1ccccc1Br)CC(=O)N2 (stereo unspecified)", "active"],
  ["Cc1nc(C(C)Nc2ncnc3ccc(-c4ccc5c(c4)OCO5)cc23)cs1 (stereo unspecified)", "inactive"]
]}

###

# procedureText: BET inhibitor-based combinations targeting novel dependencies in MECOM-rearranged (r) AML: UCSD-AML1 cell line (AID 2202235); note: nearly all actives have a fitted effect of over 40% in size; note: potency is the fitted concentration of half-maximal effect
# conditionNotes: UCSD-AML1 AML cells viability, CellTiter-Glo, 48 h; series mostly up to 46 µM
Inconclusive results are not listed. The source made the active and inactive calls. The call rests on the fitted dose curve; in most records, active means well fitted inhibition curve with a large enough effect; inconclusive means small, poorly fitted or top-dose-only effect; inactive means no such curve, though single readings can be large or run the other way.

{"columns": ["compound", "Potency"],
 "data": [
  ["COc1ccc([C@@H](O)[C@@H](C)Oc2ccc([C@H]3O[C@H](c4ccc(O[C@H](C)[C@H](O)c5ccc(OC)c(OC)c5)c(OC)c4)[C@H](C)[C@H]3C)cc2OC)cc1OC", "18600 nM (active)"],
  ["COC(=O)Nc1nc2ccc(C(=O)c3ccccc3)cc2[nH]1", "296 nM (active)"],
  ["CC1=C(/C=C/C(C)=C/C=C/C(C)=C/C=C/C=C(C)/C=C/C=C(C)/C=C/C2=C(C)CCCC2(C)C)C(C)(C)CCC1", "inactive"],
  ["CNC(=O)[C@H](Cc1c[nH]c2ccccc12)NC(=O)[C@@H](CC(=O)NO)CC(C)C", "inactive"],
  ["Cc1ccc(C(=O)Nc2ccc(CN3CCN(C)CC3)c(C(F)(F)F)c2)cc1C#Cc1cnc2[nH]ncc2c1", "105 nM (active)"],
  ["CC(C)c1ccc(Cn2ccc3c4c(N)nc(NC5CC5)nc4ccc32)cc1", "1320 nM (active)"],
  ["C=CCN1C[C@H](C(=O)N(CCCN(C)C)C(=O)NCC)CC2c3cccc4[nH]cc(c34)C[C@H]21 (stereo partly drawn)", "inactive"],
  ["CC1(C)OCCn2c1nc1c(N3CCOCC3)nc(-c3cnc(N)nc3)nc12", "468 nM (active)"],
  ["CC(=O)c1cc2c(o1)C(=O)c1ccccc1C2=O", "2950 nM (active)"],
  ["OC1CCC([C@H](O)C[C@H]2c3c(F)cccc3-c3cncn32)CC1 (stereo partly drawn)", "inactive"],
  ["Nc1nccn2c(C3CCC(C(=O)O)CC3)nc(-c3cc4cccc(Cl)c4[nH]3)c12 (stereo not drawn)", "1050 nM (active)"],
  ["CC(=O)O/N=C1/C(c2c(O)[nH]c3cc(Br)ccc23)=Nc2ccccc21", "inactive"],
  ["COC1(c2sc3c(N4CCOCC4)nc(-c4cnc(N)nc4)nc3c2C)COC1", "186 nM (active)"],
  ["CCCCC(=O)OCC(=O)[C@]1(O)Cc2c(O)c3c(c(O)c2[C@@H](O[C@H]2C[C@H](NC(=O)C(F)(F)F)[C@H](O)[C@H](C)O2)C1)C(=O)c1c(OC)cccc1C3=O", "833 nM (active)"],
  ["C[C@H]1C[C@H]2[C@@H]3CCC4=CC(=O)C=C[C@]4(C)[C@H]3C(=O)C[C@]2(C)[C@@]1(O)C(=O)CO", "inactive"],
  ["C[C@H](NC(=O)/C(C#N)=C/c1cccc(Br)n1)c1ccccc1", "3720 nM (active)"],
  ["CCS(=O)(=O)Nc1ccc2[nH]c(O)c(C(=Nc3ccc(CN4CCCCC4)cc3)c3ccccc3)c2c1", "833 nM (active)"],
  ["O=C1OC(COc2ccccc2[N+](=O)[O-])CC1Cc1ccccc1 (stereo not drawn)", "inactive"]
]}

###

# testedOn: Aldehyde dehydrogenase, mitochondrial (Homo sapiens)
# procedureText: qHTS for Inhibitors of the Aldehyde Dehydrogenase Family (ALDH2) Primary screen (AID 2061308); note: nearly all actives have a fitted effect of over 55% in size
# conditionNotes: ALDH2 enzyme inhibition qHTS, 1536-well; series mostly up to 56 µM
Inconclusive results are not listed. The source made the active and inactive calls. The call rests on the fitted dose curve; in most records, active means well fitted inhibition curve with a large enough effect; inconclusive means small, poorly fitted or top-dose-only effect; inactive means flat fitted curve, though single readings scatter.
Classes used: active, inactive

{"columns": ["molecule", "className"],
 "data": [
  ["O=C(O)c1ccc(O)c2ncccc12", "inactive"],
  ["O=C(O)c1ccccc1-c1noc(-c2ccccc2F)n1", "inactive"],
  ["O=S(=O)(c1ccc2c(c1)OCCO2)N1CCN(S(=O)(=O)c2cccs2)CC1", "inactive"],
  ["O=C(N[C@H]1CCN(C(=O)c2cc(C(F)(F)F)cc(C(F)(F)F)c2)[C@H](Cc2ccc(Cl)cc2)C1)c1ccnc2ccccc12", "inactive"],
  ["COc1ccc(COc2ccc(-c3nc4ccccc4[nH]3)cc2)cc1OC", "inactive"],
  ["Cc1cc(C)nc(NC(=S)N2CC3CN(c4ncc(C(F)(F)F)cc4Cl)CC3C2)c1 (configuration not stated)", "active"],
  ["CCOC(=O)C1CCN(C(=O)C(C)(C)NC(=O)Nc2cccc(C(=O)OC)c2)CC1", "inactive"],
  ["Cc1cc(C)nc(NC(=S)N2CCN(c3cccc(OC(F)F)c3)CC2)c1", "inactive"],
  ["O=C1c2ccccc2C(=O)N1c1ccc(O)cc1", "inactive"],
  ["CC(=O)c1ccccc1-c1ncc(C)c(NCC2CCN(c3cccnc3)CC2)n1", "inactive"],
  ["Cc1ccc(OCCn2c(CCNC(=O)C3CCCCCC3)nc3ccccc32)cc1", "inactive"],
  ["O=C(O)c1cccc(-n2cccc2/C=C2/C(=O)N(Cc3ccc(F)cc3)C(=O)N2Cc2ccc(F)cc2)c1", "inactive"],
  ["COc1cccc(N2C(=O)c3ccccc3C2=O)c1", "inactive"],
  ["Cc1ccccc1C(=O)NCC(=O)OC(C(=O)Nc1cc(C(F)(F)F)ccc1Cl)c1ccccc1 (configuration not stated)", "inactive"],
  ["O=Cc1nc(Nc2cc(F)cc(F)c2)nc(NC2CCCC2)n1", "inactive"],
  ["CCN(CC)CCCn1c(-c2ccccc2)nc2c(NCCOC)nc(C)nc21", "inactive"],
  ["Cc1ccc(NS(=O)(=O)c2ccc3c(c2)CCC(=O)N3)cc1", "inactive"],
  ["CC(=O)Nc1sc2c(c1-c1ccc3c(c1)OCO3)CCNC2", "inactive"],
  ["O=C(c1ccc2c(c1)ncn2-c1ccc(Cl)cc1)N1CCCCC1", "inactive"],
  ["Cc1ccc(S(=O)(=O)Nc2ccncc2C(=O)Nc2nc(-c3ccccc3)cs2)cc1", "inactive"],
  ["O=c1c2ccccc2nc2sc(Nc3cccc(-c4ccncc4)c3)nn12", "inactive"],
  ["Cc1csc(CN(C)c2ncnc3ccc(-c4ccc5c(c4)OCO5)cc23)n1", "inactive"],
  ["O=C1CCCC2=C1C(c1cccc(C(F)(F)F)c1)N=C(Nc1nc3ccccc3o1)N2 (configuration not stated)", "inactive"],
  ["CCOc1ccc(C(=O)Nc2ccc(-c3nc4ccccc4[nH]3)cc2)cc1[N+](=O)[O-]", "inactive"],
  ["CN(C)CCN(Cc1ccccc1)C(=O)c1cc(-c2ccc(F)cc2)n2nc(C(C)(C)C)cc2n1", "inactive"],
  ["CC(=O)N1c2ccc(S(=O)(=O)Nc3ccc(C)c(C)c3)cc2CC1C (configuration not stated)", "inactive"],
  ["O=C(O)c1ccc(S(=O)(=O)N[C@H](Cc2ccc([N+](=O)[O-])cc2)C(=O)O)cc1", "inactive"],
  ["COc1ccccc1S(=O)(=O)Nc1ccc2c(c1)CN(C)C(=O)N2", "inactive"],
  ["O=C1N/C(=C\\c2ccco2)C(=O)N1Cc1ccc(F)cc1", "inactive"],
  ["COc1ccc(C2c3c(nc(Cc4ccccc4)[nH]c3=O)Oc3ccc4ccccc4c32)cc1OC (configuration not stated)", "inactive"],
  ["Nc1ccccc1S(=O)(=O)Nc1cccc2cccnc12", "inactive"],
  ["Cc1nc(N2CCOCC2)c2nc(-c3ccccc3)n(CCN(C)C)c2n1", "inactive"],
  ["Cc1cnc(-c2ccccc2CO)nc1NCc1ccc(-c2cccnc2)cc1", "inactive"],
  ["O=C1CCCC2=C1C1(CCCC1)N=C(Nc1nc3cc(-c4ccccc4)ccc3o1)N2", "inactive"],
  ["Cn1cnc(CN=C2NC3=C(C(=O)CCC3)C(c3[nH]ncc3Cl)N2)c1 (configuration not stated)", "inactive"],
  ["O=[S+]([O-])(Nc1ccccc1F)c1cccc(NC/C=C/c2ccccc2)c1", "inactive"],
  ["N=c1c2c(ccn1CCCCc1ccccc1)Oc1ccc3ccccc3c1C2c1ccccc1 (configuration not stated)", "inactive"],
  ["NC(=O)c1ccc(-c2noc(-c3cccc(Cl)c3)n2)cc1", "inactive"],
  ["CCCn1c(-c2ccc(F)cc2)nc2c(NCCCN(CCO)CCO)nc(C)nc21", "inactive"],
  ["CCN(CCc1cn(C)cn1)c1ncnc2ccc(-c3ccc4c(c3)OCO4)cc12", "inactive"],
  ["Nc1ccc(-c2ccc(NC(=O)c3cccs3)cn2)cc1", "inactive"],
  ["Cc1cc(C)n2ncc(C(=O)Nc3ccccc3C)c2n1", "inactive"]
]}
